Provide the reported Papp of each item.
# Test name: Membrane permeability test of cyclic peptides (Caco-2, modified/improved method of WO 2018/124162)
# Measurement context: human, Caco-2, Caco-2 (cm/sec), membrane permeability of cyclic peptides, Caco-2
Where a SMILES comes first, the peptide text is derived from it. Bridges are numbered along the chain shown (N, C = ends). [ ]: non-standard residue; d: D form. The star is where a group is joined. CH2(1,2,4-oxadiazolon-3-yl) = O=c1[nH]c(C*)no1; NMePhe(3-Cl) = CN[C@@H](Cc1cccc(Cl)c1)C(=O)O; NMeF = CN[C@@H](Cc1ccccc1)C(=O)O; NMeL = CN[C@@H](CC(C)C)C(=O)O; Butyl(3R-OH) = C[C@@H](O)CC*; NMeV = CN[C@H](C(=O)O)C(C)C; Piperidide = C1CCN(*)CC1; NBuGly = CCCCNCC(=O)O; Sar = CNCC(=O)O
Give the number; ×10⁻⁶ cm/s is assumed, so skip it.

Data request: Please indicate Papp recorded for CC(C)C[C@@H]1NC(=O)[C@H](C(C)C)N(C)C(=O)C[C@@H](C(=O)N2CCCCC2)NC(=O)[C@H](CC(C)C)N(C)C(=O)CN(C)C(=O)[C@H]([C@@H](C)O)NC(=O)[C@H](C(C)C)N(C)C(=O)[C@H](Cc2ccccc2)N(C)C(=O)[C@H](COCC[C@@H](C)O)NC(=O)[C@H](Cc2ccccc2)N(C)C(=O)[C@H](CC(C)C)N(C)C1=O [AP113] ([NMeV]L[NMeL][NMeF]S(Butyl(3R-OH))[NMeF][NMeV]T[Sar][NMeL]D-Piperidide; lactam N-11)
Data returned: 1.7

Data request: Please indicate Papp recorded for CCCCN1CC(=O)N(C)[C@@H](Cc2cccc(Cl)c2)C(=O)N(C)[C@@H](CC(C)C)C(=O)N[C@@H](COCc2noc(=O)[nH]2)C(=O)N(C)[C@@H](CC(C)C)C(=O)N[C@H](C(=O)N2CCCCC2)CC(=O)N(C)CC(=O)N(C)[C@@H](CC(C)C)C(=O)N[C@@H]([C@@H](C)CC)C(=O)N(C)[C@@H](CC(C)C)C(=O)N[C@@H]([C@@H](C)O)C1=O [AP50] ([Sar][NMeL]I[NMeL]T[NBuGly][NMePhe(3-Cl)][NMeL]S(CH2(1,2,4-oxadiazolon-3-yl))[NMeL]D-Piperidide; lactam N-11)
Data returned: 0.11

====

# Test name: Membrane permeability test of cyclic peptides (Caco-2, modified/improved method of WO 2018/124162)
# Measurement context: human, Caco-2, Caco-2 (cm/sec), Table 36; Papp; sequences having Papp ≥ 1.0 × 10^−6 at ARC = 3
Where a SMILES comes first, the peptide text is derived from it. Bridges are numbered along the chain shown (N, C = ends). [ ]: non-standard residue; d: D form. The star is where a group is joined. NMeF = CN[C@@H](Cc1ccccc1)C(=O)O; NMeL = CN[C@@H](CC(C)C)C(=O)O; NMeV = CN[C@H](C(=O)O)C(C)C; NMeA = CN[C@@H](C)C(=O)O; Piperidide = C1CCN(*)CC1; dNMeA = CN[C@H](C)C(=O)O; Sar = CNCC(=O)O; tBu = CC(C)(C)*
Provide the reported Papp of each item.
Write the figure, then the unit, nothing else.

Data request: Please indicate Papp recorded for CC[C@H](C)[C@@H]1NC(=O)[C@@H](C)N(C)C(=O)C[C@@H](C(=O)N(C)[C@@H](Cc2ccccc2)C(=O)N[C@@H](C)C(=O)N2CCCCC2)NC(=O)[C@H](Cc2ccccc2)N(C)C(=O)CN(C)C(=O)[C@H]([C@@H](C)O)NC(=O)[C@H](C)N(C)C(=O)[C@H](C(C)C)N(C)C(=O)[C@H](Cc2ccccc2)NC(=O)[C@H](CC(C)C)N(C)C(=O)[C@H](CC(C)C)N(C)C1=O [pd222] ([dNMeA]I[NMeL][NMeL]F[NMeV][NMeA]T[Sar][NMeF]D[NMeF]A-Piperidide; lactam N-11)
Data returned: 1.1 ×10⁻⁶ cm/s

Data request: Please indicate Papp recorded for CC[C@H](C)[C@@H]1NC(=O)[C@H](Cc2ccccc2)N(C)C(=O)CN(C)C(=O)C[C@@H](C(=O)N2CCCCC2)NC(=O)[C@H](C(C)C)N(C)C(=O)[C@H](COC(C)(C)C)NC(=O)[C@H](CC(C)C)N(C)C(=O)[C@H](Cc2ccccc2)N(C)C(=O)CN(C)C(=O)[C@H]([C@@H](C)O)NC(=O)[C@H](Cc2ccccc2)N(C)C1=O [pd205] ([Sar][NMeF]I[NMeF]T[Sar][NMeF][NMeL]S(tBu)[NMeV]D-Piperidide; lactam N-11)
Data returned: 1.8 ×10⁻⁶ cm/s

Data request: Please indicate Papp recorded for CC[C@H](C)[C@@H]1NC(=O)[C@H](CC(C)C)N(C)C(=O)[C@H](C)N(C)C(=O)[C@H]([C@@H](C)O)NC(=O)[C@H](Cc2ccccc2)N(C)C(=O)[C@H](C)N(C)C(=O)[C@@H](C)N(C)C(=O)C[C@@H](C(=O)N(C)[C@@H](Cc2ccccc2)C(=O)N(C)[C@@H](Cc2ccccc2)C(=O)N[C@@H](C)C(=O)N2CCCCC2)NC(=O)[C@H](C(C)C)N(C)C(=O)[C@H](CC(C)C)N(C)C1=O [pd201] ([dNMeA][NMeA][NMeF]T[NMeA][NMeL]I[NMeL][NMeV]D[NMeF][NMeF]A-Piperidide; lactam N-10)
Data returned: 2.3 ×10⁻⁶ cm/s
